Where do these numbers come from? They come from the nanobody polyreactivity screen of Harvey et al. (2022).

- ASSAY OVERVIEW: yeast display, Sf9 membrane polyspecificity reagent, FACS + sequencing; frameworks hold sequencing errors
OBSERVABLE: polyreactivity (PSR sort gate)

residue_codes=QVQLVESGGGLVQAGGSLRLSCAASGFIFYLYAMGWYRQAPGKERELVAAISWSGGITYYADSVKGRFTISRDNAKNTVYLQMNSLKPEDTAVYYCNAVGASASDGDYWGQGTQVTVSS measurement="high polyreactivity"
residue_codes=QVQLVESGGGLVQAGGSLRLSCAASGSTFTRYAMGWYRQAPGKERELVAAISGGGSTNYADSVKGRFTISRDNANNTVYLQKNSLKPEVTAVYFCAARVRTTGYSQMYYWGQGTQVTVSS measurement="low polyreactivity"
residue_codes=QVQHVESGGGLVQAGGSLRLSCAASGFTFVYYAMGWYRQAPGKERELVAAISRSGSRTYYADSVKGRFTISRDNAKKTVYLQMNSLKPEDTAVYYCAVAGYSPYLYRYGYWVQGTQVTVSS measurement="high polyreactivity"
residue_codes=QVQLVESGGGLVQAGGSLRLSCAASGSTFGRYTMGWYRQAPRKERELVAAITSGGGSTYYADSVKGRFTISRDNAKNTVYLQMNSLKPEDTAVYYCAARSLVQDHAYGYNYWGQGTQVTVSS measurement="low polyreactivity"
residue_codes=QVQLVESGGGLVQAGGSLRLSCAASGLTFLLNAMGWYRQAPGKERELVAAITWRGGRTYYADSVKGRFTISRDNAKNTVYLQMNSLKPEDTAVYYCAAVPVVQSQPTYYYWGQGTQVTVSS measurement="high polyreactivity"
residue_codes=QVQLVESGGGLVQAGGSLRLSCAASGLIFESYAMGWYRQAPRKERELFAAITRSGARTYYADSVKGRFSISRDNAKNTVYLQMNILKPEDTAVYYCAAAPWYFFDQYFNGISFGYYYWGQGTQLTVSS measurement="high polyreactivity"
residue_codes=QVQLVESGGGLVQAGGSLRLSCAASGSIIVRYAMGWYRQAPGKDRELVATITFRDTSTYYADSEKGRFTISRDNAKNTVYLQMNSLKPEDTAVYYCAAVRAVLWDIARYDYWGQGSQVTVSS measurement="low polyreactivity"
residue_codes=QVQLVESGGGLVQAGGSLRLSCAASGFTFVPYAMGWYRPAPGKERELLAAIDFDDATTYYADSVKGRFTISRDNAKNTVYLQMNSLKPEDTAVYYCAAVYYRRSYQGGYEYWGQGTQVTVSS measurement="high polyreactivity"
residue_codes=QVQLVESGGGIVQAGRSLRLSCAASGNTFYLYAMGWYRQAPGKERELVATITSGGRTTYADSVKGRFTISRDNAKNTVYLQMNSLKPEDTAVYYCAARRVQYYGWGGMEYWGQGTQVTVSS measurement="high polyreactivity"
residue_codes=QVQLVESGGGLVQAGGSLRLSCAASGRTFPYNAMGWYRQAPGKERELVAAITSSGGSTYYADSVKGRFTISRDNAKNTVYLQMNSLKPEDTAVYYFAKGYYSPNYYYWGQGTQVTVSS measurement="high polyreactivity"
residue_codes=QVQLVDSGGGLVQAGGSLRLSCAASGSTSQKNAMGWYRQAPGKERELVAAISSGGSTYYADSVKGRFTISRDNAKNNVYLQLNSLKPEDTAVYNCAAKDLRGLGYWGQGTQVTVSS measurement="high polyreactivity"
residue_codes=QVQLEESGGGLVQAGGSLRLSCAASGSTFDYYARGWYRPAPGKERELVAVISSGGSTYYADSVKGRFTISRDNAKNTVYLQMNSLKPEDTAVYYCAAETYYYVLPHWYKYKYGYWGQGTQVTVSS measurement="low polyreactivity"
residue_codes=QVQLVESGGGLVQAGGSLRLSCAASGFTFGSYAMGWYRQAPGKERELVAVITRSGRTNYADSVKGRFTISRDNAKNTVYLQMNSLKPEDTEVYYCNADDVDDEVSPDLTEMDYWGQGTQVTVSS measurement="low polyreactivity"
residue_codes=QVQLVESGGGFVQAGGSLRLSCAASGNIFESYGMGWYRHAPGKERELVATINSSSGSTYYADSVKGRFTISRDNAKNTVYLQMNSLKPEDTAVYYCAAEWYPYPWGYGYWGQGTQVTVSS measurement="low polyreactivity"
residue_codes=QVQLVESGGGLVQAGGSLRLSCAASGRIIVLYAMGWSRQAPGKERELVASIRSGGSTNYADSVKGRFTISRDNAKNTVYLQMNSLKPEETAVYYCAARPDHKRYDYWGQGTQVTVSS measurement="low polyreactivity"
residue_codes=QVQLVESGGGLVQAGGSLRLSCAASGITLYRYVMGWYRQAPGKERELVAAISGRGTSTYYADSVKGRFPISRDNAKNTVYLQMNSLKPEDTAVYYCNAEYTKTGALVIPYTYYYAEDYWGQGTQVTVSS measurement="low polyreactivity"
residue_codes=QVQLVESGGGLVQAGGSLRLSCAASGYTFTGYAMGGYRQAPGKERECVAGITWRTGRTYYADSVKGRFTISRDNAKNTGYLQMNSLIPEDTAVYYCNKDHQRGYYWSYDYWGQGTQVTVSS measurement="low polyreactivity"
residue_codes=QVQLVESGGGLVQAGGSLRLTCAASGFTFFVYAMGWYRQAPGKERELVASITFRSGTTYYADSVKGRFTISRDNAKNTVYLQMNSLKPEDTAVYYCAADSRRSSRGYGYYYWGQGTQVTVSS measurement="high polyreactivity"
residue_codes=QVQLGESGGGLVQAGGSLRLSCAASGSTFYPYAIGWYRQAPGKERELVARITRGDGSTYYADSVKGRFTISRDNAKNTVYVQMNSLKPEDTAVYYCIRVEYYTVWGYDYWGQGTQVTVSS measurement="low polyreactivity"
residue_codes=QVQLVESGGGLVQAGGSLRLSCAASGSIFRRNAMGWYRQAPGKERELVAAIRSGGGTNYADSVKGRFTISRDNAKNTVYLQMNSLKPEDTAVYYCAAVYERYYLFEYDYWGQGTQVTVSS measurement="low polyreactivity"
residue_codes=QVQLVESGGGLVQAGRSLRLSCAASGRIFYPYAMGWYRQAPGKERELVAAIRWSSGNTRYADSVKGRFTISRDNAKNTVYLQMNSLKPEDTAVYYCAADTTVFFYRYDYWGQGTQVTVSS measurement="high polyreactivity"

----------
- ASSAY OVERVIEW: yeast display, Sf9 membrane polyspecificity reagent, FACS + sequencing; frameworks hold sequencing errors
OBSERVABLE: polyreactivity (PSR sort gate)

residue_codes=QVQVVESGGGLVQAGASLRLSCAATGSIFVWNDMGGYRQAPGTEREFVAAITSGDGSTYYADSVKGRFTISRDNAKNTGYLQMNSLKPEDTAVYYCAARLRVTGFYSRTRFYWGQGTQVTVSS measurement="low polyreactivity"
residue_codes=QVQLVESGGGLVQAGGSLRLSCAASGFTFYRYTMGWYRQAPGKERELVAAITNTDSTNYADSVKGRFTISRDNAKNTVYLQMNSLKPEDTAVYYCNAAYVWYRIFVRRDYWGQGTQVTVSS measurement="high polyreactivity"
residue_codes=QVQHVESGGGLVQAGGSLRLSCAASASTLYRNAMGWYRQAPGKEREFVAAISWSGGSTYYADSVMGRFTISRDNAKNTVYLQMNSLKPEDTAVYYCNADTDRYWPYEYDYWGHGTQVTVSS measurement="low polyreactivity"
residue_codes=QVQLVESGGGLVQAGGSLRLSCAASGRIFRYYAMGWYRQAPGKERELVARITWSGGRTYYADSVKGRFTISRDNAKNTVYLQMNSLKPEDTAVYYCNARATSGGDYWGQGTQVTVSS measurement="high polyreactivity"
residue_codes=QVQLVESGGGLFQAGGSLRLSCAASGSIFYNYGMAWYRHAPGKERELVAAIRASGDSTYYADSVKGRFTISRDNAKNTVYLQMNSLKPEDTEVYYCAARPNQSYYGLYYYWGQGTQVTVSS measurement="low polyreactivity"

----------
- ASSAY OVERVIEW: yeast display, Sf9 membrane polyspecificity reagent, FACS + sequencing; frameworks hold sequencing errors
OBSERVABLE: polyreactivity (PSR sort gate)

residue_codes=QVQLVESGGGLVQAGGSLRLSCAASGSILNRYAMGWYRQAPGKERELVAAISRRSGSTYYADSVKGRFTISRDNAKNTVYLQMNSLKPEDTAVYYCAATSSLGDFRYDYWGQGTQVTVSS measurement="high polyreactivity"
residue_codes=QVQLVESGGGLVQAGGSLRLSCAASGSIFLKYAMGWYRQAPGKERELVAAISSRGGSTYYADSVKGRFTISRDNAKNTVYLQMNSLKPEDTAVYYCAKVRQTYFGWYSTTRDYWGQGTQVTVSS measurement="high polyreactivity"
residue_codes=QVQLVESGGGLVQAGGSLRLSCAASGRIFFRNAMGWYRQAPGKEREFVAAINWSGGSTYYADSVKGRFTISRDNAKNTVYLQMNSLKPEDTAVYYCAARGSRGGRRGATASMDYWGQGTQVTVSS measurement="high polyreactivity"
residue_codes=QVQLVESGGGLVQAGGSLRLSCAASGRTFGRNAMGWYRQAPGKEREFVAAISRRGDTTYYADSVKGRFTISRDNAKNTVYLQMNSLKPEDTAVYYCNADVIKDRFSWYYYWGQGTQVTVSS measurement="low polyreactivity"
residue_codes=QVQLVESGGGLVQAGGSLRLSCAASGSIFPEYAMGWYRQAPGKERELVAAITTSGGSTYYADSVKGRFTISRDNAKNTVYLQMNSLKPEDTAVYYCAAGTQAHAYVVRPIEMDYWGQGTQVTVSS measurement="low polyreactivity"
